# assay target: intracellular domain of DDR1 (Homo sapiens, UniProt Q08345)
# Construct: the intracellular domain of DDR1 (in a final concentration of 5 ng/μL) (Carna Biosciences, Inc.)
# Sequence (Q08345 439-913 limits assumed): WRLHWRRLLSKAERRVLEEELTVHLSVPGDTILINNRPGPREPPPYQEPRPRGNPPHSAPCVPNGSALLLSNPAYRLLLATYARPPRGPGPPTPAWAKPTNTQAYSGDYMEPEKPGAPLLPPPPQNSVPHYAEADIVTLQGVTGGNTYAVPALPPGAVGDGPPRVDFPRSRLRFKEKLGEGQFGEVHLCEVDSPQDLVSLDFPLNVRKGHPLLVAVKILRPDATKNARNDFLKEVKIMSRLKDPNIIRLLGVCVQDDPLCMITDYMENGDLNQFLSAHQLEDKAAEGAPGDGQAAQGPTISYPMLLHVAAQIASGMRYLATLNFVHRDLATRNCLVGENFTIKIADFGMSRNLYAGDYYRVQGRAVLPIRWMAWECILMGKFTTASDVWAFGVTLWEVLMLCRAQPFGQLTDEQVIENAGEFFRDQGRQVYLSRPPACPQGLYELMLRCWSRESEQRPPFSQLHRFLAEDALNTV
# method summary: Evaluation of DDR1 inhibition activity with HTRF KinEASE-TK kit
# reported conditions: DDR1 intracellular domain 5 ng/μL, ATP 25 μm/L, TK Substrate-biotin 1000 nmol/L, room temperature, one hour
pIC50: −log10 of the molar value.
property measured: pIC50

cpd smiles	reported value
COc1c(CO)cc(C(F)(F)F)cc1NC(=O)N[C@H]1CC[C@H](Oc2ccnc(-c3cccnc3)n2)CC1	7.47
O=C(Nc1cc(S(F)(F)(F)(F)F)ccc1OC1COC1)N[C@H]1CC[C@H](Oc2ncccn2)CC1	7.12
COc1ccc(OC(F)(F)F)cc1NC(=O)N[C@H]1CC[C@H](COc2cccc(C(N)=O)c2)CC1	7.10
COc1ccc(C(F)(F)F)cc1NC(=O)N[C@H]1CC[C@H](Oc2ncccn2)CC1	6.42
COc1c(CO)cc(C(F)(F)F)cc1NC(=O)N[C@H]1CC[C@H](Oc2ccnc(N3CCOCC3)n2)CC1	7.21
O=C(Nc1cc(C(F)(F)F)ccc1OC1COC1)N[C@H]1CC[C@H](Oc2ccncn2)CC1	7.01
COc1c(CO)cc(S(F)(F)(F)(F)F)cc1NC(=O)N[C@H]1CC[C@H](Oc2ccnc(N3CCOCC3)n2)CC1	7.18
COc1ccc(C(F)(F)F)cc1NC(=O)N[C@H]1CC[C@H](Oc2nccc(-c3cccnc3)n2)CC1	7.01
COc1ccc(C(F)(F)F)cc1NC(=O)N[C@H]1CC[C@H](Oc2ccnc(-c3cccnc3)n2)CC1	6.83
CNc1nccc(O[C@H]2CC[C@H](NC(=O)Nc3cc(OC(F)(F)F)cc(CO)c3OC)CC2)n1	7.60
CNc1nccc(O[C@H]2CC[C@H](NC(=O)Nc3cc(C(F)(F)F)cc(CO)c3OC)CC2)n1	7.38
CC(=O)N1CCC(Oc2ccc(C(F)(F)F)cc2NC(=O)N[C@H]2CC[C@H](OCc3ccncc3)CC2)CC1	7.29
O=C(Nc1cc(C(F)(F)F)ccc1F)N[C@H]1CC[C@H](OCc2ccncc2)CC1	6.59
O=C(Nc1cc(C(F)(F)F)ccc1Cl)N[C@H]1CC[C@H](OCc2ccncc2)CC1	6.88
COc1ccc(S(F)(F)(F)(F)F)cc1NC(=O)N[C@H]1CC[C@H](OCc2ccncc2)CC1	7.08

* * *

# assay target: intracellular domain of DDR1 (Homo sapiens, UniProt Q08345)
# Construct: the intracellular domain of DDR1 (in a final concentration of 5 ng/μL) (Carna Biosciences, Inc.)
# method summary: Evaluation of DDR1 inhibition activity with HTRF KinEASE-TK kit
# reported conditions: DDR1 intracellular domain 5 ng/μL, ATP 25 μm/L, TK Substrate-biotin 1000 nmol/L, room temperature, one hour
pIC50: −log10 of the molar value.

cpd smiles	pIC50
COc1ccc(OC(F)(F)F)cc1NC(=O)N[C@H]1CC[C@H](Oc2ccnc(N3CCOCC3)n2)CC1	6.32
COc1ccc(OC(F)(F)F)cc1NC(=O)N[C@H]1CC[C@H](COCc2cccnc2)CC1	7.09
CNc1cc(O[C@H]2CC[C@H](NC(=O)Nc3cc(C(F)(F)F)ccc3OC3CCNCC3)CC2)ncn1	7.50
COc1c(CO)cc(OC(F)(F)F)cc1NC(=O)N[C@H]1CC[C@H](Oc2ccnc(N3CCOCC3)n2)CC1	7.45
COc1ccc(OC(F)(F)F)cc1NC(=O)N[C@H]1CC[C@H](Oc2ccncn2)CC1	6.64
COc1ccc(OC(F)(F)F)cc1NC(=O)N[C@H]1CC[C@H](OCc2cccnc2)CC1	7.78
CCOc1ccc(C(F)(F)F)cc1NC(=O)N[C@H]1CC[C@H](Oc2ccnc(N3CCOCC3)n2)CC1	6.27
O=C(Nc1ccc(CO)c(C(F)(F)F)c1)N[C@H]1CC[C@H](Oc2ccnc(N3CCOCC3)n2)CC1	6.60
O=C1CN(c2ccc(C(F)(F)F)cc2NC(=O)N[C@H]2CC[C@H](Oc3ccnc(N4CCOCC4)n3)CC2)CCN1	7.33
COc1ccc(S(F)(F)(F)(F)F)cc1NC(=O)N[C@H]1CC[C@H](Oc2ccnc(N3CCOCC3)n2)CC1	6.37
CC(=O)N1CC(Oc2ccc(C(F)(F)F)cc2NC(=O)N[C@H]2CC[C@H](OCc3ccncc3)CC2)C1	7.55
O=C(Nc1cc(C(F)(F)F)ccc1N1CCOCC1)N[C@H]1CC[C@H](Oc2ncccn2)CC1	6.19
O=C(Nc1cc(CO)cc(C(F)(F)F)c1)N[C@H]1CC[C@H](OCc2ccncc2)CC1	6.94
CNc1cc(O[C@H]2CC[C@H](NC(=O)Nc3cc(C(F)(F)F)ccc3OC3CNC3)CC2)ncn1	7.57
COc1c(CO)cc(C(F)(F)F)cc1NC(=O)N[C@H]1CC[C@H](Oc2ccc(-c3ccccc3)nn2)CC1	6.72
COc1c(CO)cc(OC(F)(F)F)cc1NC(=O)N[C@H]1CC[C@H](Oc2ccnc(-c3cccnc3)n2)CC1	7.64
COc1ccc(OC(F)(F)F)cc1NC(=O)N[C@H]1CC[C@H](Oc2ncccn2)CC1	6.46
CNc1ccnc(O[C@H]2CC[C@H](NC(=O)Nc3cc(OC(F)(F)F)ccc3OC)CC2)n1	7.02
COc1ccc(OC(F)(F)F)cc1NC(=O)N[C@H]1CC[C@H](OCc2ccncc2)CC1	7.34
COc1ccc(OC(F)(F)F)cc1NC(=O)N[C@H]1CC[C@H](Oc2cccnc2)CC1	6.79
CNc1nccc(O[C@H]2CC[C@H](NC(=O)Nc3cc(OC(F)(F)F)ccc3OC)CC2)n1	6.85
COc1ccc(OC(F)(F)F)cc1NC(=O)N[C@H]1CC[C@H](COCc2ccncc2)CC1	7.60
CNc1cc(O[C@H]2CC[C@H](NC(=O)Nc3cc(C(F)(F)F)cc(CO)c3OC)CC2)ncn1	7.97
O=C(Nc1cc(C(F)(F)F)ccc1OC1COC1)N[C@H]1CC[C@H](Oc2ccnc(N3CCOCC3)n2)CC1	6.95
O=C(Nc1cc(C(F)(F)F)ccc1OC1COC1)N[C@H]1CC[C@H](Oc2ncccn2)CC1	7.24
O=C(Nc1cc(C(F)(F)F)ccc1OC1COC1)N[C@H]1CC[C@H](Oc2nccc(-c3cccnc3)n2)CC1	7.34
CNc1cc(O[C@H]2CC[C@H](NC(=O)Nc3cc(OC(F)(F)F)cc(CO)c3OC)CC2)ncn1	7.87
COc1ccc(OC(F)(F)F)cc1NC(=O)N[C@H]1CC[C@H](Oc2ccnc(NCCO)n2)CC1	6.86
O=C(Nc1ccc(CO)c(C(F)(F)F)c1)N[C@H]1CC[C@H](OCc2ccncc2)CC1	6.40
O=C(Nc1cc(C(F)(F)F)ccc1OC1COC1)N[C@H]1CC[C@H](OCc2ccncc2)CC1	7.25

* * *

# assay target: intracellular domain of DDR1 (Homo sapiens, UniProt Q08345)
# Construct: the intracellular domain of DDR1 (in a final concentration of 5 ng/μL) (Carna Biosciences, Inc.)
# method summary: Evaluation of DDR1 inhibition activity with HTRF KinEASE-TK kit
# reported conditions: DDR1 intracellular domain 5 ng/μL, ATP 25 μm/L, TK Substrate-biotin 1000 nmol/L, room temperature, one hour
Just a reminder that ties go to not satisfied: only IC50 strictly below 200 nM counts as satisfied.

cpd smiles	group
COc1ccc(OC(F)(F)F)cc1NC(=O)N[C@H]1CC[C@H](Oc2cc(N3CCOCC3)ncn2)CC1	not satisfied
O=C(Nc1cc(C(F)(F)F)ccc1O[C@H]1CCNC1)N[C@H]1CC[C@H](OCc2ccncc2)CC1	satisfied
COc1ccc(S(F)(F)(F)(F)F)cc1NC(=O)N[C@H]1CC[C@H](Oc2ncccn2)CC1	satisfied
O=C(Nc1cc(C(F)(F)F)ccc1Cl)N[C@H]1CC[C@H](Oc2ncccn2)CC1	not satisfied
COc1ccc(C(F)(F)F)cc1NC(=O)N[C@H]1CC[C@H](COCc2cccnc2)CC1	satisfied
COc1c(CO)cc(C(F)(F)F)cc1NC(=O)N[C@H]1CC[C@H](Oc2ccnc(NCCO)n2)CC1	satisfied
O=C(Nc1cc(C(F)(F)F)ccc1OC1COC1)N[C@H]1CC[C@H](Oc2ccnc(-c3ccncc3)n2)CC1	satisfied

* * *

# assay target: intracellular domain of DDR1 (Homo sapiens)
# Construct: the intracellular domain of DDR1 (in a final concentration of 5 ng/μL) (Carna Biosciences, Inc.)
# method summary: Evaluation of DDR1 inhibition activity with HTRF KinEASE-TK kit
# reported conditions: DDR1 intracellular domain 5 ng/μL, ATP 25 μm/L, TK Substrate-biotin 1000 nmol/L, room temperature, one hour
The entries below are paired with their reported log10(IC50).
property measured: log10(IC50) (log10 of the value in nM)

molecule	log10(IC50)
O=C(Nc1cc(C(F)(F)F)ccc1OC1COC1)N[C@H]1CC[C@H](Oc2ccnc(-c3cccnc3)n2)CC1 [Example 38]	1.79
O=C(Nc1cc(C(F)(F)F)ccc1O[C@@H]1CCNC1)N[C@H]1CC[C@H](OCc2ccncc2)CC1 [Example 35]	1.95
O=C(Nc1cc(C(F)(F)F)ccc1OC1CCNCC1)N[C@H]1CC[C@H](OCc2ccncc2)CC1 [Example 32]	1.00
Cc1ccc(C(F)(F)F)cc1NC(=O)N[C@H]1CC[C@H](OCc2ccncc2)CC1 [Example 25]	2.62
COc1c(CO)cc(C(F)(F)F)cc1NC(=O)N[C@H]1CC[C@H](OCc2ccncc2)CC1 [Example 21]	1.59
